EXPERIMENT DESCRIPTION: Safety evaluation, mouse survival rate (30 days oral)
Format: in vivo, C57BL/6 mice
TEST CONDITIONS: mouse, in vivo, female, 500 mg/kg, oral
VALUE TYPE: survival at 720 h (%)
Answers are plain numbers, in %.

// survival at 720 h value for CN(C)C[C@@H]1C(=O)O[C@H]2[C@H]1CC[C@@]1(C)C[C@]13CC[C@@](C)(O)[C@H]23 : 100

---

EXPERIMENT DESCRIPTION: Conversion (release) of prodrug salts to parent compound in HEPES buffer pH 7.4
Format: in vitro ADME
TEST CONDITIONS: hepes buffer, pH 7.4, HEPES pH 7.4, 37 °C, 8 h; read-out: Release rate (conversion to Compound 1)
Exercise: state measured degraded at 8 h for each of the compounds provided.
Numbers only, in %.

// degraded at 8 h value for CCCCN(CCCC)C[C@@H]1C(=O)O[C@H]2[C@H]1CC[C@@]1(C)C[C@]13CC[C@@](C)(O)[C@H]23 : 40.8

For each of the items listed, what is its degraded at 8 h?
1. CC(C)N(C[C@@H]1C(=O)O[C@H]2[C@H]1CC[C@@]1(C)C[C@]13CC[C@@](C)(O)[C@H]23)C(C)C
2. C[C@@]12CC[C@@H]3[C@H](OC(=O)[C@H]3CN3CCCCC3)[C@@H]3[C@]1(CC[C@@]3(C)O)C2
3. C[C@@]12CC[C@@H]3[C@H](OC(=O)[C@H]3CN3CCOCC3)[C@@H]3[C@]1(CC[C@@]3(C)O)C2

[41.2, 42.8, 42.8]

---

EXPERIMENT DESCRIPTION: Conversion (release) of prodrug salts to parent compound in mouse plasma
Assay type: in vitro ADME
TEST CONDITIONS: mouse, plasma, 37 °C, 2 h, read-out: Release rate (conversion to Compound 82)
VALUE TYPE: metabolised at 2 h

// metabolised at 2 h value for CC1=C2CC[C@@](C)(OC(=O)N3CCCC3)[C@@H]2[C@H]2OC(=O)[C@@H](CN3CCCC3)[C@@H]2CC1 [Compound 103] : 13.2%

---

EXPERIMENT DESCRIPTION: Conversion (release) of prodrug salts to parent compound in mouse plasma
Assay type: in vitro ADME
TEST CONDITIONS: mouse, plasma, 37 °C, 4 h, read-out: Release rate (conversion to Compound 1)
VALUE TYPE: metabolised at 4 h (%)
Give bare numbers, in %.

For orientation, consider the following solved cases.
// metabolised at 4 h value for C[C@@]12CC[C@@H]3[C@H](OC(=O)[C@H]3CN3CCCCC3)[C@@H]3[C@]1(CC[C@@]3(C)O)C2 : 27.7

// metabolised at 4 h value for CN(C)C[C@@H]1C(=O)O[C@H]2[C@H]1CC[C@@]1(C)C[C@]13CC[C@@](C)(O)[C@H]23 : 26.2

// metabolised at 4 h value for C[C@@]12CC[C@@H]3[C@H](OC(=O)[C@H]3CN3CC4CCCC4C3)[C@@H]3[C@]1(CC[C@@]3(C)O)C2 (some centres unmarked) : 25.2

// metabolised at 4 h value for CC(C)N(C[C@@H]1C(=O)O[C@H]2[C@H]1CC[C@@]1(C)C[C@]13CC[C@@](C)(O)[C@H]23)C(C)C : 24.4

Here is another compound to look at.
// metabolised at 4 h value for C[C@@]12CC[C@@H]3[C@H](OC(=O)[C@H]3CN3CCCCCCC3)[C@@H]3[C@]1(CC[C@@]3(C)O)C2 : 25.4
